# System Name: T1, human TfR ectodomain fused to a mouse IgG1 Fc fragment (human, UniProt P02786 89-760)
# T1 construct: extracellular domain; ectodomain fused to the N-terminal end of the Fc, made in-house; not shown: mouse IgG1 Fc fragment
# T1 sequence (P02786 89-760): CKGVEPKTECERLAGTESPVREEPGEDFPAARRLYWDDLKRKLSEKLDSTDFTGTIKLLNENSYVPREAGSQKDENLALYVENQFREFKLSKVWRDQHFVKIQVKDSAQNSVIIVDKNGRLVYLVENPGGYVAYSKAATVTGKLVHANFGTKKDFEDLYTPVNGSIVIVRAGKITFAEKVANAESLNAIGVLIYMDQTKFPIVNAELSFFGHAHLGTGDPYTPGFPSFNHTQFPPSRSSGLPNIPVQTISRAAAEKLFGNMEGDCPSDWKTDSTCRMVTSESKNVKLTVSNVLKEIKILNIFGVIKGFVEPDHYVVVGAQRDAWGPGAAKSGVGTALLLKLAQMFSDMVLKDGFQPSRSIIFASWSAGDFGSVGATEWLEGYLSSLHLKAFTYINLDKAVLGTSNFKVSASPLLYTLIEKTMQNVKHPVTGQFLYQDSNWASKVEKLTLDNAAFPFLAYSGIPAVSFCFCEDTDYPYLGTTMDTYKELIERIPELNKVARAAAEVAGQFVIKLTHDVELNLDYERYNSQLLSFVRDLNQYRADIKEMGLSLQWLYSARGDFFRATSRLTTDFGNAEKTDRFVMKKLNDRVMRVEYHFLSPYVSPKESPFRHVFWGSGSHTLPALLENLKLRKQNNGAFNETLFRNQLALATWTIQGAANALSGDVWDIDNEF
# Method Notes: SPR, kinetic
Rule: measured kon below 500000 M⁻¹ s⁻¹ gets satisfied; anything equal to or greater than 500000 M⁻¹ s⁻¹ gets not satisfied.

VHH A15 (C5^V15) (VHH) VHH: EVQLVESGGGVVQPGGSLKLSCVASGTDFSINFIRWYRQAPGKQREFVAGFTATGNTNYADSMKGRFTISRDNTKNAVYLQIDSLKPEDTAVYYCFMLDKWGQGTQVTVSS	not satisfied

Input line: In plain terms, does B8^V36 (VHH) VHH: EVQLVESGGGVVQPGGSLRLSCAASGEIFSINVMRWYRQAPGKQREWVAGFTRDGSTNYPDSAKGRFTISRDNAKNTVYLQIDSLKPEDTAVYYCYMLDTWGQGTQVTVSS come in under 500000 M⁻¹ s⁻¹ for kon?
Output line: not satisfied

Input line: In plain terms, does B8^V12 (VHH) VHH: EVQLVESGGGVVQPGGSLRLSCAASGEIFYINFMRWYRQAPGKQREWVAGFTRDGSTNYPDSAKGRFTISRDNAKNTVYLQIDSLKPEDTAVYYCYMLDTWGQGTQVTVSS come in under 500000 M⁻¹ s⁻¹ for kon?
Output line: not satisfied

Input line: In plain terms, does B7 (VHH) VHH: QVQLVQSGGGLVQAGGSLTLSCTASGRPLSDYPMGWFRRAPEKERELVASISRTGDGTYYADGMRGRFTISRDNSENTVSLQMNNLKPEDTAVYYCGAGINPTKYWGQGTQVTVSS come in under 500000 M⁻¹ s⁻¹ for kon?
Output line: not satisfied

Input line: In plain terms, does C5^V32 (VHH) VHH: EVQLVESGGGVVQPGGSLKLSCVASGTDFSINFIRWYSQAPGKQREFVAGFTATGNTNYADSMKGRLTISRDNTKNAVYLQIDSLKPEDTAVYYCYMLGKWGQGTQVTVSS come in under 500000 M⁻¹ s⁻¹ for kon?
Output line: not satisfied

Input line: In plain terms, does C10a (VHH) VHH: EVQLVESGGGLVQAGDSLRLSCAASGFASHLYAIGWFRQAPGKEREKVSCISSNDGSTYYADSVKGRFTISRDTVKDMVYLQMNSLKPEDTAVYYCATDLTVHCFMAEYDWWGQGTQVTVSS come in under 500000 M⁻¹ s⁻¹ for kon?
Output line: satisfied

Input line: In plain terms, does C5^V16h20 (VHH) VHH: EVQLVESGGGVVQPGGSLRLSCAASGTDFSINFIRWYRQAPGKGLEFVAGFTATGNTNYADSVKGRFTISRDNAKNAVYLQMNSLRPEDTAVYYCYILDKWGQGTQVTVSS come in under 500000 M⁻¹ s⁻¹ for kon?
Output line: satisfied

Values were extracted from patent US20230414780A1.
